// provenance: patent US9029389B2

Kindly supply the reported melting point values for the records listed here.

Q: Assign melting point to the following record: `CCc1nc2ccc(F)cn2c1C(=O)NCc1ccc(N2CCC(c3ccc(OC(F)(F)F)cc3)CC2)cc1`
Ans: > 167.9 °C (dec.)

Q: Give melting point for the following compound: `CCc1nc2cc(Cl)ccn2c1C(=O)NCc1ccc(N2CCN(Cc3ccc(F)cc3)CC2)cc1`
Ans: 141 to 142 °C

Q: Look up and report measured melting point for this entry: CCc1nc2cc(Cl)ccn2c1C(=O)NCc1ccc(N2CC(Cc3ccc(F)cc3)OC2=O)cc1 (centres unmarked)
Ans: > 96.9 °C (dec.)

Q: Answer with the recorded melting point for the compound listed here: `CCc1nc2cc(Cl)ccn2c1C(=O)NCc1ccc(N2CCN(c3ccc(F)cc3)CC2)cc1`
Ans: 212 to 213 °C

Q: Look up melting point of `CCc1nc2ccc(Cl)cn2c1CNc1ccc(N2CCN(c3ccc(F)cc3)CC2)cc1` and report it.
Ans: 191 to 192 °C

Q: Give me measured melting point, please, for this compound: `CCc1nc2ccc(Cl)cn2c1C(=O)N(C)Cc1ccc(N2CCN(c3ccc(F)cc3)CC2)cc1`
Ans: 148 to 149 °C

Q: Read the entry `CCc1nc2c(F)cccn2c1C(=O)NCc1ccc(N2CCC(c3ccc(OC(F)(F)F)cc3)CC2)cc1` and write its reported melting point.
Ans: > 177.7 °C (dec.)

Q: Check the records and state melting point for `CCc1nc2cc(Cl)ccn2c1C(=O)NCC1CCN(Cc2ccc(OC(F)(F)F)cc2)CC1`
Ans: 145 to 146 °C

Q: Please supply the value of reported melting point for the item `CCc1nc2ccc(Cl)cn2c1C(=O)NCc1ccc(C2CCN(C(=O)Cc3ccc(F)cc3)CC2)cc1`
Ans: 216.2 to 220.7 °C

Q: Give recorded melting point. `CCc1nc2ccc(Cl)cn2c1C=O`
Ans: 115 to 116 °C

Q: Supply melting point value. Item: `CCc1nc2ccc(Cl)cn2c1CNc1ccc(Oc2ccc(F)cc2)cc1`
Ans: 148.6 to 148.8 °C
